Entries and their measured inhibition at 20 µM follow.
TEST_SYSTEM: KRas G12D/Q61H double mutant (Homo sapiens (Human), UniProt P01116, G12D/Q61H)
Sequence (P01116-2 other isoform, or with tags, fused parts or gaps G12D/Q61H): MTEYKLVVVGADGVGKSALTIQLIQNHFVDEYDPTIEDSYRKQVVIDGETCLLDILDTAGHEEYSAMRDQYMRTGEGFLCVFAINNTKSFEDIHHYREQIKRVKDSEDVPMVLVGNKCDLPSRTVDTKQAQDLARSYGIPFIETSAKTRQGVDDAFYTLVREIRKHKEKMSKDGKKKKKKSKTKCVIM
ASSAY_TEXT: Ras GTP binding domain inhibition assay (labeled GTP)
PARTICULARS: 20 μM compound; KRas G12D/Q61H double mutant; read-out: % Inhibition at 20 μM of K-Ras mutant and wild-type protein, KRas G12D Q61H
ENDPOINT_NAME: inhibition at 20 µM

[[record]]
molecule = "Cc1occc1C(=O)OCC(COC(=O)c1ccoc1C)NC(=O)OC(C)(C)C"
endpoint_name = "inhibition at 20 µM"
result = "25 to 50%"

[[record]]
molecule = "COc1cccc(-c2nc(C(=O)N3CCC(c4ccccc4)CC3)c[nH]2)c1OC"
endpoint_name = "inhibition at 20 µM"
result = "25 to 50%"

[[record]]
molecule = "CCCN(CC1CC1)C(=O)COC(=O)c1c(C)nc(-c2cccs2)nc1SC"
endpoint_name = "inhibition at 20 µM"
result = "1 to 25%"

[[record]]
molecule = "CCC(C)(C)c1ccc(Oc2ccc(NC(=O)NS(=O)(=O)c3ccc(C)cc3)cc2)cc1"
endpoint_name = "inhibition at 20 µM"
result = "51 to 75%"

[[record]]
molecule = "COC(=O)CCc1sc(NC2CCCCC2)nc1-c1ccc(OC)cc1"
endpoint_name = "inhibition at 20 µM"
result = "25 to 50%"

[[record]]
molecule = "CCCOc1ccc2ccccc2c1CN(C)Cc1nnc(-c2ccccc2)o1"
endpoint_name = "inhibition at 20 µM"
result = "25 to 50%"

[[record]]
molecule = "Cn1ccnc1-c1nc(O)c2c(-c3ccccc3)c(-c3ccccc3)sc2n1 [drawing 3536]"
endpoint_name = "inhibition at 20 µM"
result = "1 to 25%"

[[record]]
molecule = "COc1ccc(C(=O)NC(C)Cc2ccc(-c3ccccc3)cc2)c(OC)c1OC (centres unmarked)"
endpoint_name = "inhibition at 20 µM"
result = "25 to 50%"

[[record]]
molecule = "Cc1sc2c(O)nc(-c3ccccn3)nc2c1C(=O)N1CCN(c2ccccc2)CC1 [drawing 3508]"
endpoint_name = "inhibition at 20 µM"
result = "25 to 50%"

[[record]]
molecule = "O=C(CCCOc1ccc(Cl)cc1Cl)N1N=CCC1(O)C(F)(F)F (centres unmarked)"
endpoint_name = "inhibition at 20 µM"
result = "25 to 50%"

[[record]]
molecule = "O=c1[nH]c(CN(CCc2ccc(Cl)cc2)Cc2nc3ccsc3c(=O)[nH]2)nc2ccsc12"
endpoint_name = "inhibition at 20 µM"
result = "25 to 50%"

[[record]]
molecule = "COC(=O)C(C)CN(Cc1ccc(OCc2ccc([N+](=O)[O-])cc2)c(OC)c1)C1CC1 (centres unmarked)"
endpoint_name = "inhibition at 20 µM"
result = "25 to 50%"

[[record]]
molecule = "CCC(C)c1csc2c(OC)nc(-c3ccccn3)nc12 (centres unmarked) [drawing 3471]"
endpoint_name = "inhibition at 20 µM"
result = "51 to 75%"

[[record]]
molecule = "OCCCCCSc1n[nH]c(-c2ccccn2)n1"
endpoint_name = "inhibition at 20 µM"
result = "51 to 75%"


---

TEST_SYSTEM: KRas G12D/Q61H double mutant (Homo sapiens (Human), UniProt P01116, G12D/Q61H)
ASSAY_TEXT: Ras GTP binding domain inhibition assay (labeled GTP)
PARTICULARS: 20 μM compound; read-out: % Inhibition at 20 μM KRas G12D Q61H
ENDPOINT_NAME: inhibition at 20 µM

[[record]]
compound = "O=c1[nH]c(-c2ccccn2)nc2ccc(F)cc12"
result = "25 to 50%"

[[record]]
compound = "N#Cc1csc2nc(-c3ccccn3)nc(N3CCOCC3)c12 [drawing 2819]"
result = "25 to 50%"

[[record]]
compound = "COc1ccc(S(=O)(=O)N2CCCCCC2)cc1C(=O)NCCc1ccccc1"
result = "25 to 50%"

[[record]]
compound = "c1ccc(-c2nc(NCC3CCCO3)c3ccsc3n2)nc1 (centres unmarked) [drawing 2705]"
result = "25 to 50%"

[[record]]
compound = "COc1ccc(CCNC(=O)c2csc3nc(-c4ccccn4)nc(N4CCOCC4)c23)cn1 [drawing 2745]"
result = "25 to 50%"

[[record]]
compound = "COc1cc(F)ccc1N1CCN(C(=O)c2csc3c(O)nc(-c4ccccn4)nc23)CC1"
result = "25 to 50%"

[[record]]
compound = "O=C(COCc1ccncc1)Nc1nc(-c2ccccn2)nc2sccc12 [drawing 2828]"
result = "51 to 75%"

[[record]]
compound = "Cc1ccc(S(=O)(=O)NC(c2ccccc2)c2ccccn2)c(Cl)c1 (centres unmarked)"
result = "25 to 50%"

[[record]]
compound = "O=C(NCCc1cnc(O)nc1)c1csc2nc(-c3ccccn3)nc(N3CCS(=O)(=O)CC3)c12 [drawing 2854]"
result = "25 to 50%"

[[record]]
compound = "CCOC(=O)CCN(Cc1cccnc1)c1nc(C(F)(F)F)ccc1C#N"
result = "1 to 25%"

[[record]]
compound = "O=c1nc(-c2ccccn2)[nH]c2scc(-c3ccco3)c12"
result = "25 to 50%"

[[record]]
compound = "O=C(Nc1nc(-c2ccccn2)cs1)c1ccc(=O)n(Cc2ccccc2)n1"
result = "25 to 50%"

[[record]]
compound = "O=C(c1ccc(COc2ccccc2)o1)N1CCCc2ccc(F)cc21"
result = "25 to 50%"

[[record]]
compound = "COc1ccc(CCN(C)C(=O)c2csc3nc(-c4ccccn4)nc(N4CCOCC4)c23)cn1 [drawing 2746]"
result = "0%"

[[record]]
compound = "O=C(COCc1ccnc(O)c1)Nc1nc(-c2ccccn2)nc2sccc12 [drawing 2857]"
result = "51 to 75%"

[[record]]
compound = "O=C(c1csc2c(O)nc(-c3ccccn3)nc12)N1CCN(c2cccc(F)c2)CC1 [drawing 2753]"
result = "25 to 50%"

[[record]]
compound = "COc1ccc(OC)c(-c2csc(C3CC3)n2)c1"
result = "25 to 50%"

[[record]]
compound = "COC(=O)c1csc2nc(-c3ccccn3)nc(N)c12 [drawing 2895]"
result = "25 to 50%"

[[record]]
compound = "COc1ccnc(-c2nc(O)c3c(C(F)(F)F)csc3n2)c1 [drawing 2833]"
result = "25 to 50%"

[[record]]
compound = "CCC(C)c1ccc(S(=O)(=O)N(C)C(c2ccccc2)c2ccccn2)cc1 (centres unmarked)"
result = "25 to 50%"

